Test: Permeability from basolateral to apical side in human Caco-2 cells
Format: ADME, cell-based
Conditions: read-out: permeability
measure: Papp B→A (×10⁻⁶ cm/s)

- CNC(=C[N+](=O)[O-])NCCSCc1ccc(CN(C)C)o1 [RANITIDINE]: 5.6
- Cn1cncc1CN1CC(N(Cc2ccc(S(C)(=O)=O)cc2)S(=O)(=O)c2ccccn2)Cc2cc(C#N)ccc21 (configuration not stated): 50.1
- Cn1cnc(S(=O)(=O)N(CCn2cccc2)C2Cc3cc(C#N)ccc3N(Cc3cncn3C)C2)c1 (configuration not stated): 53
- CC[C@]1(O)C[C@@H]2CN(CCc3c([nH]c4ccccc34)[C@@](C(=O)OC)(c3cc4c(cc3OC)N(C)[C@H]3[C@@](O)(C(=O)OC)[C@H](OC(C)=O)[C@]5(CC)C=CCN6CC[C@]43[C@@H]65)C2)C1 [VINBLASTINE]: 41.9

(I) Cn1cncc1CN1CC(N(CCn2cccc2)S(=O)(=O)c2ccccn2)Cc2cc(C#N)ccc21 (configuration not stated)
(II) Cn1cnc(S(=O)(=O)N(Cc2ccc(C(F)(F)F)o2)C2Cc3cc(C#N)ccc3N(Cc3cncn3C)C2)c1 (configuration not stated)
(III) Cn1cncc1CN1CC(N(Cc2cccc(-n3cccc3)c2)S(=O)(=O)c2ccccn2)Cc2cc(C#N)ccc21 (configuration not stated)
Order field: Papp B→A | Direction: descending (largest first) Output the labels ranked as instructed.
II, I, III
(II: 72.5 ×10⁻⁶ cm/s, I: 45.5 ×10⁻⁶ cm/s, III: 12.1 ×10⁻⁶ cm/s)

---

Experiment: Elimination half life in Sprague-Dawley rat at 50 mg/kg, po
Type: ADME, organism-based
Parameters: dose 50 mg/kg, route oral
Conditions: in vivo, read-out: beta t1/2
measure: half-life (h)

(a) Cn1cncc1CN1CC(N(CCn2cccc2)S(=O)(=O)c2ccccn2)Cc2cc(C#N)ccc21 (stereo unspecified)
(b) Cn1cnc(S(=O)(=O)N(CC(=O)NC(C)(C)C)C2Cc3cc(-c4ccccc4)ccc3N(Cc3cncn3C)C2)c1 (stereo unspecified)
(c) Cn1cnc(S(=O)(=O)N(Cc2ccc(C(F)(F)F)o2)C2Cc3cc(C#N)ccc3N(Cc3cncn3C)C2)c1 (stereo unspecified)
Your job: order these 3 records by half-life, ascending. The labels, placed in the requested order, form the answer.
c, a, b
(c: 0.433 h, a: 1.03 h, b: 1.77 h)

---

Assay: Permeability from apical to basolateral side in human Caco-2 cells
Format: ADME, cell-based
Details: read-out: permeability
measure: Papp A→B (×10⁻⁶ cm/s)

// known answers, use as guide
• Cn1cncc1CN1CC(N(CC2CCN(S(C)(=O)=O)CC2)S(=O)(=O)c2ccccn2)Cc2cc(C#N)ccc21 (stereo not drawn) = 0.1
• CNC(=C[N+](=O)[O-])NCCSCc1ccc(CN(C)C)o1 = 0.3
• C=C(C)C(=O)N1CCC(CN(C2Cc3cc(C#N)ccc3N(Cc3cncn3C)C2)S(=O)(=O)c2ccccn2)CC1 (stereo not drawn) = 0.5
• Cn1cncc1CN1CC(N(CC2CCN(C(=O)OC(C)(C)C)CC2)S(=O)(=O)c2ccccn2)Cc2cc(C#N)ccc21 (stereo not drawn) = 15.5

(P) Cn1cncc1CN1CC(N(CC2CCN(C(=O)N3CCCC3)CC2)S(=O)(=O)c2ccccn2)Cc2cc(C#N)ccc21 (stereo not drawn)
(Q) Cn1cnc(S(=O)(=O)N2CCC(CN(C3Cc4cc(C#N)ccc4N(Cc4cncn4C)C3)S(=O)(=O)c3ccccn3)CC2)c1 (stereo not drawn)
(R) Cn1cncc1CN1CC(N(CCn2cccc2)S(=O)(=O)c2ccccn2)Cc2cc(C#N)ccc21 (stereo not drawn)
(S) Cn1cnc(S(=O)(=O)N(Cc2cccc(-n3cccc3)c2)C2Cc3cc(C#N)ccc3N(Cc3cncn3C)C2)c1 (stereo not drawn)
Ranking field: Papp A→B; order: falling. Please express your ranking as an ordered list of the labels.
R, P, S, Q
(R: 12.4 ×10⁻⁶ cm/s, P: 0.6 ×10⁻⁶ cm/s, S: 0.2 ×10⁻⁶ cm/s, Q: 0.1 ×10⁻⁶ cm/s)

---

Assay: AUC in Sprague-Dawley rat at 50 mg/kg, po
Format: ADME, organism-based
Set-up: dose 50 mg/kg, route oral
Details: plasma
measure: AUC (µM·h)

Recorded AUC, per entry:
- Cn1cncc1CN1CC(N(CC2CCN(C(=O)OC(C)(C)C)CC2)S(=O)(=O)c2ccccn2)Cc2cc(C#N)ccc21 (stereo not drawn): 30.1
- CC(C)COC(=O)N1CCC(CN(C2Cc3cc(C#N)ccc3N(Cc3cncn3C)C2)S(=O)(=O)c2ccccn2)CC1 (stereo not drawn): 33.8
- Cn1cncc1CN1CC(N(CC2CCN(C(=O)OCc3ccccc3)CC2)S(=O)(=O)c2ccccn2)Cc2cc(C#N)ccc21 (stereo not drawn): 10.9
- CC(C)OC(=O)N1CCC(CN(C2Cc3cc(C#N)ccc3N(Cc3cncn3C)C2)S(=O)(=O)c2ccccn2)CC1 (stereo not drawn): 10.9
- COC(=O)N1CCC(CN(C2Cc3cc(C#N)ccc3N(Cc3cncn3C)C2)S(=O)(=O)c2ccccn2)CC1 (stereo not drawn): 10.9
- Cn1cnc(S(=O)(=O)N(CC(=O)NC(C)(C)C)C2Cc3cc(-c4ccccc4)ccc3N(Cc3cncn3C)C2)c1 (stereo not drawn): 13.5

(P) Cn1cncc1CN1CC(N(CCn2cccc2)S(=O)(=O)c2ccccn2)Cc2cc(C#N)ccc21 (stereo not drawn)
(Q) Cn1cnc(S(=O)(=O)N(Cc2ccc(C(F)(F)F)o2)C2Cc3cc(C#N)ccc3N(Cc3cncn3C)C2)c1 (stereo not drawn)
Could you kindly indicate whether P or Q has the higher AUC value? Your answer should be the label of the entry you select.
P
(P: 11.6 µM·h, Q: 5.42 µM·h)

---

Test: Elimination half life in Sprague-Dawley rat at 50 mg/kg, po
Format: ADME, organism-based
Design: dose 50 mg/kg, route oral
Conditions: in vivo, read-out: beta t1/2
measure: half-life (h)
Answer format: numeric, h implied, no suffix.

Please review the entries below; each comes with its answer.
- COC(=O)N1CCC(CN(C2Cc3cc(C#N)ccc3N(Cc3cncn3C)C2)S(=O)(=O)c2ccccn2)CC1 (stereo not drawn): 0.683
- CC(C)COC(=O)N1CCC(CN(C2Cc3cc(C#N)ccc3N(Cc3cncn3C)C2)S(=O)(=O)c2ccccn2)CC1 (stereo not drawn): 1.03

// next entry
Can you look up the measured half-life of Cn1cncc1CN1CC(N(CC2CCN(C(=O)OC(C)(C)C)CC2)S(=O)(=O)c2ccccn2)Cc2cc(C#N)ccc21 (stereo not drawn) for me?
2.52
